molecular target: UniProt P14900
Sequence (P14900 whole entry): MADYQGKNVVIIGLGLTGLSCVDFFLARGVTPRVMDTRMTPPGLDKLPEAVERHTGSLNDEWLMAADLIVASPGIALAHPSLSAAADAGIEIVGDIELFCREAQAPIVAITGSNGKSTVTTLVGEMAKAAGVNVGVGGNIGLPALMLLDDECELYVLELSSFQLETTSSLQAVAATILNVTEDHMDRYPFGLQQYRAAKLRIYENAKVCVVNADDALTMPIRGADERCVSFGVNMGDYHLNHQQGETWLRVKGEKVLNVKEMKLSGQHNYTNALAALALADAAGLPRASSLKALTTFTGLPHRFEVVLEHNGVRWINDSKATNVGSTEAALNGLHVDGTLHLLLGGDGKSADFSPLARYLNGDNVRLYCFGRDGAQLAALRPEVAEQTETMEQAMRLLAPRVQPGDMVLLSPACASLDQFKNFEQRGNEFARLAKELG
Measured IC50 of individual entries

>  <test_smiles>
O=C1O/C(=C\c2cccc(C(F)(F)F)c2)C(O)=C1c1ccc2ccccc2c1

>  <IC50>
> 65.4 µM

$$$$
>  <test_smiles>
O=C1O/C(=C\c2cccc(C(F)(F)F)c2)C(O)=C1c1cccc2ccccc12

>  <IC50>
> 65.4 µM

$$$$
>  <test_smiles>
O=C1O/C(=C\c2ccc3ccccc3c2)C(O)=C1c1cccc(C(F)(F)F)c1

>  <IC50>
> 65.4 µM

$$$$
>  <test_smiles>
O=C1O/C(=C\c2cccc(C(F)(F)F)c2)C(O)=C1c1ccc(Cl)cc1

>  <IC50>
> 68.2 µM

$$$$
>  <test_smiles>
O=C1O/C(=C\c2cccc(C(F)(F)F)c2)C(O)=C1c1ccc(-c2ccccc2)c(F)c1

>  <IC50>
> 58.6 µM

$$$$

###

Measured IC50 accompanies every entry in the list below.
Target: UDP-N-acetylmuramoylalanine--D-glutamate ligase (Staphylococcus aureus, UniProt P0A091)
Sequence (P0A091 whole entry): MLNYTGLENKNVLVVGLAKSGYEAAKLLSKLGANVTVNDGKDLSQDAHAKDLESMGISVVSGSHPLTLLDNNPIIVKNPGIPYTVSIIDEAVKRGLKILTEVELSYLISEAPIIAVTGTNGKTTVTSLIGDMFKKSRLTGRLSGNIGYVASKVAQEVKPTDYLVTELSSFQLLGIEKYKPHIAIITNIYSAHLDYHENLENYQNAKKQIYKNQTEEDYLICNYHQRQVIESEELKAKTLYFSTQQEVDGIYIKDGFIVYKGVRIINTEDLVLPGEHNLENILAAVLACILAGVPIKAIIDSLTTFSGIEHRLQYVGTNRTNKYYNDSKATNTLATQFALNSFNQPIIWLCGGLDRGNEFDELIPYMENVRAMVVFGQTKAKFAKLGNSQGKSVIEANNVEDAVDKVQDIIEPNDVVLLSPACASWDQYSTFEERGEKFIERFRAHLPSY
measured_attribute: IC50 (µM)

>  <test_smiles>
O=C1O/C(=C\c2cccc(-c3cc(Cl)cc(Cl)c3)c2)C(O)=C1c1cc(Cl)cc(Cl)c1

>  <qualifier_operator>
=

>  <recorded_value>
12.5

$$$$
>  <test_smiles>
O=C1O/C(=C\c2ccccc2-c2ccc(Cl)c(Cl)c2)C(O)=C1c1ccc(Cl)c(Cl)c1

>  <qualifier_operator>
=

>  <recorded_value>
10.5

$$$$
>  <test_smiles>
COc1cc(/C=C2\OC(O)=C(c3cc(Cl)cc(Cl)c3)C2=O)ccc1-c1ccccc1C(F)(F)F

>  <qualifier_operator>
=

>  <recorded_value>
33.5

$$$$
>  <test_smiles>
Cc1ccccc1-c1ccc(/C=C2\OC(O)=C(c3cc(Cl)cc(Cl)c3)C2=O)cc1C

>  <qualifier_operator>
=

>  <recorded_value>
20.6

$$$$
>  <test_smiles>
Cc1cc(/C=C2\OC(O)=C(c3cc(Cl)cc(Cl)c3)C2=O)ccc1-c1ccccc1C(F)(F)F

>  <qualifier_operator>
=

>  <recorded_value>
48.9

$$$$
>  <test_smiles>
Cc1cc(/C=C2\OC(O)=C(c3cccc(Cl)c3)C2=O)ccc1-c1ccccc1C(F)(F)F

>  <qualifier_operator>
=

>  <recorded_value>
26.3

$$$$
>  <test_smiles>
O=C1O/C(=C\c2cc(C(F)(F)F)ccc2Cl)C(O)=C1c1ccc(N2CCOCC2)c(F)c1

>  <qualifier_operator>
>

>  <recorded_value>
53.2

$$$$

###

system: Streptococcus pneumoniae; test: Antibacterial activity against penicillin resistant Streptococcus pneumoniae; type: functional; conditions: GC 1894

>  <test_smiles>
O=C1O/C(=C\c2cccc(-c3cc(Cl)cc(Cl)c3)c2)C(O)=C1c1cc(Cl)cc(Cl)c1

>  <unit_abbrev>
µg/mL

>  <qualifier_operator>
=

>  <MIC>
0.25

$$$$
>  <test_smiles>
O=C1O/C(=C\c2cccc(C(F)(F)F)c2)C(O)=C1c1ccc(-c2ccccc2)c(F)c1

>  <unit_abbrev>
µg/mL

>  <qualifier_operator>
=

>  <MIC>
0.25

$$$$
>  <test_smiles>
O=C1O/C(=C\c2cccc3ccccc23)C(O)=C1c1ccc(Cl)cc1

>  <unit_abbrev>
µg/mL

>  <qualifier_operator>
=

>  <MIC>
0.5

$$$$
>  <test_smiles>
O=C1O/C(=C\c2cc(C(F)(F)F)ccc2Cl)C(O)=C1c1ccc(N2CCOCC2)c(F)c1

>  <unit_abbrev>
µg/mL

>  <qualifier_operator>
=

>  <MIC>
16

$$$$
>  <test_smiles>
Cc1cc(/C=C2\OC(O)=C(c3cccc(Cl)c3)C2=O)ccc1-c1ccccc1C(F)(F)F

>  <unit_abbrev>
µg/mL

>  <qualifier_operator>
≤

>  <MIC>
0.12

$$$$
>  <test_smiles>
O=C1O/C(=C\c2ccc(Cl)cc2)C(O)=C1c1ccc(-c2ccccc2)cc1

>  <unit_abbrev>
µg/mL

>  <qualifier_operator>
=

>  <MIC>
1

$$$$
>  <test_smiles>
O=C1O/C(=C\c2cccc(C(F)(F)F)c2)C(O)=C1c1ccc2ccccc2c1

>  <unit_abbrev>
µg/mL

>  <qualifier_operator>
=

>  <MIC>
8

$$$$
>  <test_smiles>
O=C1O/C(=C\c2cc(C(F)(F)F)ccc2F)C(O)=C1c1ccc(-c2ccccc2)c(F)c1

>  <unit_abbrev>
µg/mL

>  <qualifier_operator>
=

>  <MIC>
0.5

$$$$

###

A collection of compounds and their measured pIC50
Target chain: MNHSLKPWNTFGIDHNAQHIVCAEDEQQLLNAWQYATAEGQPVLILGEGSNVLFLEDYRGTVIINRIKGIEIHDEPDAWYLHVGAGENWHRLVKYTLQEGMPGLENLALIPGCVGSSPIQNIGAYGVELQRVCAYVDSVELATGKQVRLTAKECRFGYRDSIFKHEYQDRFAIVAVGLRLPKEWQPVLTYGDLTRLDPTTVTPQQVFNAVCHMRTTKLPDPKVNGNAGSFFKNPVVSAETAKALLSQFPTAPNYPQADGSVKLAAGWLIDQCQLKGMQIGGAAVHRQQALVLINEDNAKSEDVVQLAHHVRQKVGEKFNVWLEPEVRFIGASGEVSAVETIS
pIC50: −log10 of the molar value.

>  <test_smiles>
COc1cc(/C=C2\OC(O)=C(c3cc(Cl)cc(Cl)c3)C2=O)ccc1-c1ccccc1C(F)(F)F

>  <qualifier_operator>
=

>  <pIC50>
5.40

$$$$
>  <test_smiles>
O=C1O/C(=C\c2cccc(C(F)(F)F)c2)C(O)=C1c1ccc(-c2ccccc2)cc1

>  <qualifier_operator>
=

>  <pIC50>
4.91

$$$$
>  <test_smiles>
O=C1O/C(=C\c2cccc(C(F)(F)F)c2)C(O)=C1c1cccc2ccccc12

>  <qualifier_operator>
<

>  <pIC50>
4.18

$$$$
>  <test_smiles>
Cc1cc(/C=C2\OC(O)=C(c3cccc(Cl)c3)C2=O)ccc1-c1ccccc1C(F)(F)F

>  <qualifier_operator>
=

>  <pIC50>
5.18

$$$$
>  <test_smiles>
COc1ccccc1-c1ccc(/C=C2\OC(O)=C(c3cc(Cl)cc(Cl)c3)C2=O)cc1OC

>  <qualifier_operator>
=

>  <pIC50>
4.89

$$$$

###

# maps each entry to its log10(MIC)
test system: Streptococcus pneumoniae; assay: Antibacterial activity against penicillin resistant Streptococcus pneumoniae; type: functional; details: GC 1894
measured_attribute: log10(MIC) (log10 of the value in µg/mL)

>  <test_smiles>
O=C1O/C(=C\c2cccc(C(F)(F)F)c2Cl)C(O)=C1c1ccc(-c2ccccc2)c(F)c1

>  <log10(MIC)>
-0.60

$$$$
>  <test_smiles>
O=C1O/C(=C\c2ccc3ccccc3c2)C(O)=C1c1cccc(C(F)(F)F)c1

>  <log10(MIC)>
-0.30

$$$$
>  <test_smiles>
O=C1O/C(=C\c2cccc(C(F)(F)F)c2)C(O)=C1c1ccc(-c2ccccc2)cc1

>  <log10(MIC)>
-0.30

$$$$
>  <test_smiles>
COc1ccc(C2=C(O)O/C(=C\c3cccc4ccccc34)C2=O)cc1

>  <log10(MIC)>
0.90

$$$$
>  <test_smiles>
Cc1cc(/C=C2\OC(O)=C(c3cc(Cl)cc(Cl)c3)C2=O)ccc1-c1ccccc1C(F)(F)F

>  <log10(MIC)>
-0.30

$$$$
>  <test_smiles>
O=C1O/C(=C\c2cccc(-c3cccc(Cl)c3)c2)C(O)=C1c1cccc(Cl)c1

>  <log10(MIC)>
0.00

$$$$
>  <test_smiles>
O=C1O/C(=C\c2cccc(C(F)(F)F)c2)C(O)=C1c1cccc2ccccc12

>  <log10(MIC)>
0.90

$$$$
>  <test_smiles>
O=C1O/C(=C\c2ccc(-c3ccccc3)cc2)C(O)=C1c1cccc2ccccc12

>  <log10(MIC)>
0.60

$$$$
>  <test_smiles>
O=C1O/C(=C\c2ccc(-c3ccccc3)cc2)C(O)=C1c1ccc2ccccc2c1

>  <log10(MIC)>
0.30

$$$$
>  <test_smiles>
COc1ccc(C2=C(O)O/C(=C\c3cccc(C(F)(F)F)c3)C2=O)cc1

>  <log10(MIC)>
0.30

$$$$
>  <test_smiles>
O=C1O/C(=C\c2cccc(C(F)(F)F)c2)C(O)=C1c1ccc(Cl)cc1

>  <log10(MIC)>
0.00

$$$$
>  <test_smiles>
COc1ccccc1-c1ccc(/C=C2\OC(O)=C(c3cc(Cl)cc(Cl)c3)C2=O)cc1OC

>  <log10(MIC)>
-0.30

$$$$
>  <test_smiles>
O=C1O/C(=C\c2cccc3ccccc23)C(O)=C1c1cccc(C(F)(F)F)c1

>  <log10(MIC)>
-0.30

$$$$
>  <test_smiles>
O=C1O/C(=C\c2cc(C(F)(F)F)ccc2Cl)C(O)=C1c1ccc(-c2ccccc2)c(F)c1

>  <log10(MIC)>
-0.60

$$$$
>  <test_smiles>
COc1cc(/C=C2\OC(O)=C(c3cc(Cl)cc(Cl)c3)C2=O)ccc1-c1ccccc1C(F)(F)F

>  <log10(MIC)>
-0.30

$$$$
